// reported max response for each item listed
# SYSTEM NAME: Nuclear receptor subfamily 1 group I member 2 (Rattus norvegicus) (UniProt Q9R1A7)
# Sequence (Q9R1A7 whole entry, looked up): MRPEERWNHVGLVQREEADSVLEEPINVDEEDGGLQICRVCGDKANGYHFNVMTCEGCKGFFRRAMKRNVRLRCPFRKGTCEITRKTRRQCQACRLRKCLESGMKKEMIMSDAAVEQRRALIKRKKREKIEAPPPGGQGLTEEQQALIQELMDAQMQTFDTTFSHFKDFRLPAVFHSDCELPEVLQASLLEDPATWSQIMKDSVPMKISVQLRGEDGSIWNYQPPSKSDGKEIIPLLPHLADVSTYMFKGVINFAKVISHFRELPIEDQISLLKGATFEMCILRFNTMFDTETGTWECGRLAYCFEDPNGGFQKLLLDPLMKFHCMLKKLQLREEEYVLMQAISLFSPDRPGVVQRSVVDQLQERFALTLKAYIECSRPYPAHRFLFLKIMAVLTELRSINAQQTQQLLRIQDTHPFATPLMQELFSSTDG
# EXPERIMENTAL DETAILS: qHTS assay for small molecule activators of the rat pregnane X receptor (rPXR) signaling pathway (AID 651751); note: 0% is about no effect
# CONDITION SUMMARY: rPXR reporter cells, luciferase (One-Glo), 24 h
The source made the active and inactive calls. The rule behind the calls is not given here.
PROPERTY LABEL: max response

molecule="N#Cc1nn(-c2c(Cl)cc(C(F)(F)F)cc2Cl)c(N)c1S(=O)C(F)(F)F (stereo not drawn)" system_name="Nuclear receptor subfamily 1 group I member 2 (Rattus norvegicus) (UniProt Q9R1A7)" property_label="max response" experimental_result="-15% (inactive)"
molecule=Cc1ccc(N=CN(C)C=Nc2ccc(C)cc2C)c(C)c1 system_name="Nuclear receptor subfamily 1 group I member 2 (Rattus norvegicus) (UniProt Q9R1A7)" property_label="max response" experimental_result="4.54% (inactive)"
molecule=CCCCCCCCC(=O)NCc1ccc(O)c(OC)c1 system_name="Nuclear receptor subfamily 1 group I member 2 (Rattus norvegicus) (UniProt Q9R1A7)" property_label="max response" experimental_result="2.01% (inactive)"
molecule=CCOP(=S)(OCC)O/N=C(\C#N)c1ccccc1 system_name="Nuclear receptor subfamily 1 group I member 2 (Rattus norvegicus) (UniProt Q9R1A7)" property_label="max response" experimental_result="-0.568% (inactive)"
molecule="O=C(NC(=O)c1c(F)cccc1F)Nc1cc(Cl)c(OC(F)(F)C(F)C(F)(F)F)cc1Cl (stereo not drawn)" system_name="Nuclear receptor subfamily 1 group I member 2 (Rattus norvegicus) (UniProt Q9R1A7)" property_label="max response" experimental_result="0.749% (inactive)"
molecule=CCNc1nc(Cl)nc(NCC)n1 system_name="Nuclear receptor subfamily 1 group I member 2 (Rattus norvegicus) (UniProt Q9R1A7)" property_label="max response" experimental_result="-3.28% (inactive)"
molecule=CCCCCCCCCCCC[N+](C)(C)CCOc1ccccc1 system_name="Nuclear receptor subfamily 1 group I member 2 (Rattus norvegicus) (UniProt Q9R1A7)" property_label="max response" experimental_result="-13.8% (inactive)"
molecule=C[C@H]1C(=O)O[C@@H]2CCN3CC=C(COC(=O)[C@](C)(O)[C@]1(C)O)[C@H]23 system_name="Nuclear receptor subfamily 1 group I member 2 (Rattus norvegicus) (UniProt Q9R1A7)" property_label="max response" experimental_result="0.678% (inactive)"

---

# EXPERIMENTAL DETAILS: qHTS of pediatric cancer cell lines to identify multiple opportunities for drug repurposing: Primary screen for A673 cells (AID 1347092); note: nearly all actives have a fitted effect of over 45% in size
# CONDITION SUMMARY: A673 Ewing sarcoma viability, CellTiter-Glo ATP luminescence, 48 h; series mostly up to 46 µM
# Protocol: Drug repurposing or repositioning has been offered as a strategy for drug development in oncology programs. […] We employed a titration-based paradigm (quantitative high-throughput screening or qHTS), where all compounds were tested at multiple concentrations for their effect on cell viability. […] Shen, M et al. Quantitative high-throughput phenotypic screening of pediatric cancer cell lines identifies multiple opportunities for drug repurposing. […]
Results filed as inconclusive are left out. Calls of active or inactive are those of the source. Calls follow the shape of the dose curve; as a rule, active = well fitted cell-killing curve with a large enough effect; inconclusive = small, poorly fitted or top-dose-only effect; inactive = no such curve, though single readings can be large or run the other way.
Classes used: active, inactive

molecule=O=C(O)c1nn(Cc2ccc(Cl)cc2Cl)c2ccccc12 assigned_label=inactive
molecule=CC(C)=C[C@@H]1[C@@H](C(=O)OCc2coc(Cc3ccccc3)c2)C1(C)C assigned_label=inactive
molecule=OC(c1ccccc1)(c1ccccc1)C1CCNCC1 assigned_label=inactive
molecule=C[C@@H]1CC[C@H]2[C@@H](C)C(=O)O[C@@H]3O[C@@]4(C)CC[C@@H]1[C@]32OO4 assigned_label=inactive
molecule=CN1C[C@@H](NS(=O)(=O)N(C)C)C[C@@H]2c3cccc4c3c(cn4C)C[C@H]21 assigned_label=inactive
molecule="CC1N=C(N)OC1c1ccccc1 (configuration not stated)" assigned_label=inactive
molecule=CCOC(=O)c1ncn2c1CN(C)C(=O)c1c(I)cccc1-2 assigned_label=inactive
molecule=CCN(Cc1ccc(Cl)nc1)/C(=C/[N+](=O)[O-])NC assigned_label=inactive
molecule=C[N+](C)(C)CCOC(=O)C(O)(c1ccccc1)c1ccccc1 assigned_label=inactive
molecule=CCCOC(=O)Cc1ccc(OCC(=O)N(CC)CC)c(OC)c1 assigned_label=inactive
molecule=CN1C(=O)CN=C(c2ccccc2)c2cc([N+](=O)[O-])ccc21 assigned_label=inactive
molecule="CCCC(C)C1(CC)C(=O)N=C(S)NC1=O (configuration not stated)" assigned_label=inactive
molecule=O=C(N[C@H]1N=C(c2ccccc2F)c2cccc3c2N(CC3)C1=O)c1cc2ccccc2[nH]1 assigned_label=inactive
molecule=COc1cc(CC#N)cc(OC)c1OC assigned_label=inactive
molecule=COP(=S)(OC)Oc1ccc(S(N)(=O)=O)cc1 assigned_label=inactive
molecule=O=C(CCl)c1ccc(Cl)cc1Cl assigned_label=active
molecule=C[C@]12CC[C@H]3[C@@H](CCC4=CC(=O)CC[C@@]43C)[C@@H]1CC[C@@H]2C(=O)O assigned_label=inactive
molecule=CC[n+]1c(-c2ccccc2)c2cc(N)ccc2c2ccc(N)cc21 assigned_label=active
molecule=Cc1ccc(N=CN(C)C=Nc2ccc(C)cc2C)c(C)c1 assigned_label=inactive
molecule=CC(C)(O)C(Cl)(Cl)Cl assigned_label=inactive
molecule="CCOC(=O)NC(O)C(Cl)(Cl)Cl (configuration not stated)" assigned_label=inactive
molecule=Sc1ccccc1Cl assigned_label=inactive
molecule=O=C1NCN(c2ccccc2)C12CCN(CCCOc1ccc(F)cc1)CC2 assigned_label=inactive
molecule=C[C@]12CC[C@H]3[C@@H](CC=C4C[C@@H](O)CC[C@@]43C)[C@@H]1CC[C@@H]2O assigned_label=inactive
molecule=Nc1ccc(N)cc1 assigned_label=active
molecule=CC(C)[N+](C)(CCC(C(N)=O)(c1ccccc1)c1ccccc1)C(C)C assigned_label=inactive
molecule=CN1C(=O)[C@@H](NC(=O)c2cc3ccccc3[nH]2)N=C(c2ccccc2)c2ccccc21 assigned_label=active
molecule="CC(Cc1ccccc1)NCCCCl (configuration not stated)" assigned_label=inactive
molecule=CCOP(=S)(OCC)O/N=C(\C#N)c1ccccc1 assigned_label=inactive
molecule="C[C@@H]1CN(C2CCC(C#N)(c3ccc(F)cc3)CC2)CC[C@]1(C(=O)O)c1ccccc1 (some centres not stated)" assigned_label=inactive
molecule=Cc1ccc([N+](=O)[O-])[c]2c1[O][Hg]2 assigned_label=active
molecule=Cc1ncc2n1-c1ccc(Cl)cc1C(c1ccccc1F)=NC2 assigned_label=inactive
